Assay: A CellTox Green Cytotoxicity Assay to monitor cytotoxicity in HepG2 cells - 40 hour (AID 1224879); note: nearly all actives have a fitted effect of over 40% in size
Conditions: CellTox Green fluorescence; series mostly up to 76.8 µM
Description: National Center for Advancing Translational Sciences [NCATS] NIH Chemical Genomics Center [NCGC] U.S. Environmental Protection Agency [EPA] National Institutes of Environmental Health Sciences [NIEHS] National Toxicology Program [NTP] Cell-based models are critical for drug discovery. […] Viable cells produce no appreciable increases in fluorescence. Therefore, the fluorescence signal produced by the binding interaction with dead cell DNA is proportional to cytotoxicity. […]
Records with an inconclusive call do not appear. Calls of active or inactive are those of the source. Calls come from the whole dose curve; as a rule, active = well fitted activation curve with a large enough effect in the repeat runs; inconclusive = weak or mixed curves; inactive = flat fitted curve, though single readings scatter.
Form entry, call: pick from active, inactive

// below: answered molecules
> print(dat)
                                    molecule  assigned.category
 1                                ClCCCCCCCl           inactive
 2                            O=C(Cl)C(Cl)Cl           inactive
 3                   CCOP(=O)(CN(CCO)CCO)OCC           inactive
 4                     C=C(Cl)CSC(=S)N(CC)CC           inactive
 5  Cc1ccc(S(=O)(=O)N[C@@H](CCCCN)C(=O)CCl)cc1           inactive
 6              CCOP(=S)(OCC)Oc1ccc(Cl)cc1Cl           inactive
 7                         CN=CNc1ccc(C)cc1C           inactive
 8                           CCN(CC)C1CCCCC1           inactive
 9        CCCN1CCC[C@@H]2Cc3[nH]ncc3C[C@H]21           inactive
10           Cc1cc(OC(=O)N(C)C)nn1C(=O)N(C)C           inactive

Please let me know the test result on file for O=C(O)C(Br)(Br)Br .
inactive

Please share the test call associated with COc1ccccc1OC .
inactive

Recorded test call requested for ClCC1CO1 (stereo unspecified)
inactive

# outcome recorded in this test, key = CCCOc1nn(C(=O)NS(=O)(=O)c2ccccc2C(=O)OC)c(=O)n1C
inactive

Answer briefly: the call reported for CC[C@@H](CO)NC(=O)[C@@H]1C=C2c3cccc4[nH]cc(c34)C[C@H]2N(C)C1 in this assay.
inactive

----------
Assay: qHTS assay to identify small molecule agonists of the endoplasmic reticulum stress response signaling pathway (AID 1159516)
Details: ESRE-bla HeLa, ER stress beta-lactamase reporter, 5 h; series mostly up to 61 µM
Inconclusive results are not listed. Active and inactive are the calls of the source. Calls come from the whole dose curve; as a rule, active = well fitted activation curve with a large enough effect in the signal ratio in the repeat runs (not every such curve was filed as active); inconclusive = weak or mixed curves, or effect the other way; inactive = flat fitted curve, though single readings scatter; the % refers to the signal ratio.
property.label: activation

Here is how some molecules turned out for activation.
> print(dat)
                                   molecule  observed.result
1                        O=c1[nH]oc2c1CCNC2         inactive
2  C=C1C[C@@H]2[C@H](CC[C@]3(C)C(=O)CC[C@@H]23)[C@@]2(C)C=CC(=O)C=C12         inactive
3                                  C=CCCC#N         inactive
4  CCCCCCC1CCOC1=O (configuration not stated)         inactive
5  CC(C)[N+](C)(CCC(C(N)=O)(c1ccccc1)c1ccccc1)C(C)C         inactive

Need activation for each of these molecules.
1. CCC(=O)OC1(c2ccccc2)CCN(C)CC1
2. Cc1cc(OC(=O)N(C)C)nn1C(=O)N(C)C

1. inactive
2. inactive

Data provenance is PubChem BioAssay (Tox21).
